target: A1PI (Homo sapiens); construct: Human plasma is currently the only approved source of therapeutic AlPI; assay: Purification of A1PI from Effluent II+III on peptide column, A1PI mass balance; type: binding; details: Table 13; A1PI; 1 ml Eff. II+III, 4° C.
Sequence (P01009 25-418): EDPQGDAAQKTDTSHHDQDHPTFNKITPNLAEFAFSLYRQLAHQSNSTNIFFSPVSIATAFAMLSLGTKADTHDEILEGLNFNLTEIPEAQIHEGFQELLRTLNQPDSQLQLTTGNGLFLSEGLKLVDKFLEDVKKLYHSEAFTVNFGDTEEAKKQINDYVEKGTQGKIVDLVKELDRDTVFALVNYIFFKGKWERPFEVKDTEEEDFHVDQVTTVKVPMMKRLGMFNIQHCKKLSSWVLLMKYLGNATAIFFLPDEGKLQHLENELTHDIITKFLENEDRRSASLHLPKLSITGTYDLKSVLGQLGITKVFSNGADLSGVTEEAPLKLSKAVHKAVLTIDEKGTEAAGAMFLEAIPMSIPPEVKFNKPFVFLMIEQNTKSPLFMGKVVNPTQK
Ends that are not written are not given here.
Hi there, I'd appreciate the recorded Percent Eluted by Fraction, 1M NaCl for every entry that follows.
Numbers only, in %.

Hello, I would appreciate it if you could give Percent Eluted by Fraction, 1M NaCl for each entry below.
1. A I F L V R: point mutation of VIFLVR, position 1 (AIFLVR)
2. K I F L V R: point mutation of VIFLVR, position 1 (KIFLVR)
3. S I F L V R: point mutation of VIFLVR, position 1 (SIFLVR)
4. R I F L V R: point mutation of VIFLVR, position 1 (RIFLVR)
5. VIFLVR
6. H I F L V R: point mutation of VIFLVR, position 1 (HIFLVR)

Given back:
7
3
3
0
5
10
